Tested on: DeltatarO mutant
measurement-notes: S. aureus survival, RN4220 and DeltatarO strains – OD600, teichoic acid synthesis inhibitors, primary screen (AID 463173)
test-parameters: S. aureus RN4220 wild type/DeltatarO growth, OD600, 18 h, hits give low values, screened at 18.75 µg/mL (by protocol)
In all, about 52,000 compounds went through this assay and about 4,300 (8.3%) were called active. Only a selection was taken, and actives are over-represented in it overall.

{"columns": ["compound", "target-entity", "survival, %"],
 "data": [
  ["CCOc1ccc(CCNC(=O)c2sc3nc4n(c(=O)c3c2C)CCCC4)cc1", "DeltatarO mutant", 75],
  ["CCOc1ccc(CCNC(=O)CCc2c(C)nc3cc(-c4ccccc4OC)nn3c2C)cc1", "DeltatarO mutant", 50],
  ["Cc1cccc(NC(=O)C(=O)NCCc2csc(-c3ccc(F)cc3)n2)c1C", "DeltatarO mutant", 83],
  ["COC(=O)c1cc(NC(=O)CCc2c(C)nc3cc(-c4ccccc4)nn3c2C)cc(C(=O)OC)c1", "DeltatarO mutant", 118],
  ["CCCSc1ncc(Cl)c(C(=O)Nc2sc3c(c2C(N)=O)CCCC3)n1", "DeltatarO mutant", 46],
  ["COc1ccccc1-c1cc2nc(C)c(CCC(=O)NCCc3ccc(SC)cc3)c(C)n2n1", "DeltatarO mutant", 81],
  ["COc1ccccc1-c1cc2nc(C)c(CCC(=O)NCCc3cccc(C)c3)c(C)n2n1", "DeltatarO mutant", 55],
  ["COc1ccc(C(=O)Nc2nnc(S(=O)(=O)N3CCN(c4ccc(C)cc4)CC3)s2)cc1", "DeltatarO mutant", 48],
  ["COc1ccc(NC(=O)C(=O)Nc2ccc3nc4n(c(=O)c3c2)CCCCC4)c(OC)c1", "DeltatarO mutant", 84],
  ["Cc1cc(SCC(=O)NCc2ccccc2Cl)nc(=O)[nH]1", "DeltatarO mutant", 96],
  ["CCN(CC)S(=O)(=O)c1ccc(NC(=O)CCc2c(C)nc3cc(-c4ccc(Cl)cc4)nn3c2C)cc1", "DeltatarO mutant", 92],
  ["CCOC(=O)c1cccc(NC(=O)CCc2c(C)nc3cc(-c4ccc(Cl)cc4)nn3c2C)c1", "DeltatarO mutant", 35],
  ["CCOC(=O)c1cccc(NC(=O)CCc2c(C)nc3c4cccnc4nn3c2C)c1", "DeltatarO mutant", 100],
  ["O=C(CS(=O)(=O)c1cccc2nsnc12)Nc1ccc(F)cc1F", "DeltatarO mutant", 102],
  ["CCOC(=O)CC(NC(=O)CCc1c(C)nc2cc(-c3ccccc3)nn2c1C)c1ccc(C)cc1 (configuration not stated)", "DeltatarO mutant", 109],
  ["COc1ccc(C(=O)NCCc2nc3ccccc3[nH]2)cc1", "DeltatarO mutant", 127],
  ["N#CC1=C(N)C(C#N)(C#N)C(c2ccccc2)C2CCCC=C12 (configuration not stated)", "DeltatarO mutant", 97],
  ["CCOCCCNC(=O)c1c(NC(=O)c2nc(SC)ncc2Cl)sc2c1CCCC2", "DeltatarO mutant", 64],
  ["CCOC(=O)Cc1c(C)nc2cc(C)nn2c1C", "DeltatarO mutant", 98],
  ["COc1ccc(C(=O)Nc2nnc(S(=O)(=O)N3CCOCC3)s2)cc1", "DeltatarO mutant", 99],
  ["O=C(c1cccc(F)c1)N1CCN(C(=O)c2cccc3ccccc23)CC1", "DeltatarO mutant", 92],
  ["CCc1nnc(SCc2nc(-c3ccc(OC)c(OC)c3)oc2C)c2cc3sc(C)cc3n12", "DeltatarO mutant", 69],
  ["CCOC(=O)c1c(C)[nH]c(C)c1S(=O)(=O)NCC(=O)NCc1cccc(Br)c1", "DeltatarO mutant", 130],
  ["Cc1ccc(C(=O)Nc2nnc(S(=O)(=O)N3CCN(c4ccc(F)cc4)CC3)s2)cc1", "DeltatarO mutant", 56],
  ["CC(=O)c1ccc(NC(=O)CCc2c(C)nc3cc(-c4ccc(Cl)cc4)nn3c2C)cc1", "DeltatarO mutant", 47],
  ["Cc1ccc(-c2nc(CCNC(=O)C(=O)Nc3c(C)cccc3C)cs2)cc1", "DeltatarO mutant", 8],
  ["Cc1ccc(-c2nc(CCNC(=O)C(=O)Nc3ccc(C)cc3C)cs2)cc1", "DeltatarO mutant", 66],
  ["Cc1ccc(-c2nc(CCNC(=O)C(=O)Nc3ccc(C)c(Cl)c3)cs2)cc1", "DeltatarO mutant", 60],
  ["CCOc1ccc(NC(=O)CCc2c(C)nc3cc(-c4ccc(Cl)cc4)nn3c2C)cc1", "DeltatarO mutant", 35],
  ["COc1ccc(N(C)C(C)=O)cc1", "DeltatarO mutant", 91],
  ["Cc1nc(SCC(=O)N2c3ccccc3CCc3ccccc32)n[nH]1", "DeltatarO mutant", 102],
  ["CCCSc1ncc(Cl)c(C(=O)Nc2sc3c(c2C(=O)NCC)CCCC3)n1", "DeltatarO mutant", 45],
  ["COc1ccc(C)cc1NC(=O)N1CC(C)Sc2ccccc21 (configuration not stated)", "DeltatarO mutant", 55],
  ["CCOC(=O)Cc1c(C)nc2cc(-c3ccc(C(C)(C)C)cc3)nn2c1C", "DeltatarO mutant", -4],
  ["Clc1ccc(NCc2nc3ccccc3n2CCOc2ccccc2)cc1", "DeltatarO mutant", 50],
  ["COc1ccc(NC(=O)CSc2nc3ccccc3n2CC(=O)N(C)c2ccc(F)cc2)cc1", "DeltatarO mutant", 87],
  ["Cc1ccc(-c2nc(CCNC(=O)C(=O)Nc3ccc(C)c(C)c3)cs2)cc1", "DeltatarO mutant", 20],
  ["O=C(NCCc1nc2ccccc2[nH]1)c1ccc(F)cc1", "DeltatarO mutant", 81],
  ["Cc1cccc(CCn2c(=O)c3ccccc3n(CC(=O)Nc3ccccc3F)c2=O)c1", "DeltatarO mutant", 76],
  ["COc1ccc(CN2CCc3nc(N4CCN(c5ccc(F)cc5)CC4)ncc3C2)c(OC)c1OC", "DeltatarO mutant", 119],
  ["CCCSc1ncc(Cl)c(C(=O)Nc2sc3c(c2C(=O)NCCOC)CCCC3)n1", "DeltatarO mutant", 92],
  ["Cc1cc(C)cc(OCC(=O)NCCc2nc3ccccc3[nH]2)c1", "DeltatarO mutant", 109]
]}
